system: SF-268 CNS; experiment: NCI tumour cell line growth inhibition, 48 h
assay-metric: TGI

Record summary for `CCOc1cc[n+](C(=C=[N-])C#N)cc1` : reported TGI = > 100 µM

# TGI (molecule: CCC12C=CCN3CCC4(C(=C(C(=O)OC)C1)Nc1ccccc14)[C@H]32 (stereo not given in full) ) is 45.4 µM

The measured TGI associated with CC(=O)Nc1ccc2c3c(cc(O)c2c1)N(C(=O)CCCCCC(=O)Nc1ccc2c4c(cc(O)c2c1)N(C(=O)OC(C)(C)C)CC4CCl)CC3CCl (stereo not given) reads 6.87 µM

Entry N#CC1([N+](=O)[O-])C=C1c1ccccc1 (stereo not given) , TGI reported as > 100 µM

Entry `COc1ccc(CNC(=O)c2c(C)n([O-])c3cc(F)c(F)cc3[n+]2=O)cc1` ; TGI = 15.7 µM

Query `COc1ccc(OC)c(/C=C/C(=O)c2ccc3cc(OC)ccc3c2)c1` yields TGI of > 50 µM

In plain terms, `CC(=O)Nc1nc(C)c(-c2cc3c(c(S(C)(=O)=O)c2)C(=O)N([C@@H](C)C2CC2)C3)s1` has a documented TGI of > 100 µM

# molecule COc1ccc(/C=C2\CC3C4CC=C5C[C@@H](O)CC[C@]5(C)C4CC[C@]3(C)C2=O)cc1OC (stereo not given in full) ; its TGI = > 100 µM

Please fill in: TGI reported for `C[Si](C)(C)C#CCOC=C1CC1` = > 100 µM

The molecule listed as `C/C(CC(O)(C(F)(F)F)C(F)(F)F)=N/Nc1ccc([N+](=O)[O-])cc1[N+](=O)[O-]` shows TGI equal to > 10 µM

---

tested on: NCI-H23 lung; assay: NCI tumour cell line growth inhibition, 48 h; in the data active = GI50 below about 0.43 µM; inactive = the rest
Where a SMILES comes first, the peptide text is derived from it. [ ]: non-standard residue; d: D form. The star is where a group is joined. ξ: configuration not given here. dIva = CC[C@@](C)(N)C(=O)O; Aib = CC(C)(N)C(=O)O; ξP = O=C(O)C1CCCN1; βAla = NCCC(=O)O; X5 = OCN*
Outcomes you can answer with include only these: active, inactive

Outcome logged for CC1CC2(C)CC(=O)C1C1C(=O)N(CCN3CCOCC3)C(=O)C12 (centres undefined) in this assay:
inactive

Recorded test outcome, item `CC(=O)N1c2ccc(-c3ccc(C(=O)O)cc3)cc2[C@H](Nc2ccc(Cl)cc2)C[C@@H]1C`
inactive

How did this test come out for `COC(=O)CCc1c(/C=C2\N=C(c3ccc[nH]3)C=C2OC)[nH]c(C)c1C(=O)OCc1ccccc1` ?
inactive

Could you kindly confirm the outcome this assay logged for `CN1CCN(Cc2ccc(NC(=O)c3cncc(C#Cc4ncc5ccccn45)c3)cc2C(F)(F)F)CC1` ?
inactive

Test call for this compound, please: CC[C@@](C)(NC(=O)[C@H](C)NC(=O)CCNC(=O)C(C)(C)NC(=O)[C@H](C)NC(=O)[C@@H]1CCCN1C(=O)[C@@](C)(CC)NC(=O)[C@H](Cc1ccccc1)NC(=O)C1CCCN1C(=O)C(C)(C)NC(=O)C1CCCN1C(=O)C(C)(C)NC(C)=O)C(=O)NCCC(=O)N[C@@H](CC(C)C)C(=O)NC(C)(C)C(=O)NCCC(=O)N[C@@H](CC(C)C)C(=O)NC(C)(C)C(=O)NC(C)(C)C(=O)N[C@@H](CC(C)C)C(=O)NCCC(=O)NCO (some centres undefined) (Ac-[Aib][ξP][Aib][ξP]F[dIva]PA[Aib][βAla]A[dIva][βAla]L[Aib][βAla]L[Aib][Aib]L[βAla]-X5)
active

// return assay outcome for `Nc1nc(Cl)c2ncn(Cc3ccc(-c4ccc(CCl)cc4)cc3)c2n1`
inactive

Please indicate how the test categorized `O=S1(=O)C=C(c2ccccc2)C(c2ccccc2)=C1` .
inactive

Please state the recorded outcome for this compound: `Nc1nc(N)c(-c2ccc(Cl)cc2)c(/C=C/c2ccc([N+](=O)[O-])cc2)n1`
inactive

// param item: `CN1CCN(Cc2ccc(NC(=O)c3[nH]ncc3Nc3cc(OC4CCCC4)ncn3)cc2)CC1` ; yields the recorded call
inactive

Check the results log: what was the call for `COc1ccc(CNC(=O)c2c(C)n([O-])c3cc(F)c(F)cc3[n+]2=O)cc1` ?
inactive

What classification did `CC(=O)Nc1nc(C)c(-c2cc3c(c(S(C)(=O)=O)c2)C(=O)N([C@@H](C)C2CC2)C3)s1` end up with in this test?
inactive

Which outcome was entered for the compound CCN1C(=O)N(CC)C2C1NN=c1s/c(=C\c3cnc(C)n3C)c(=O)n12 (centres undefined) in this test?
inactive

Recorded call for `CSc1nc(-c2cccc(NC(=O)CCl)c2)c(C#N)c(=O)n1C` ?
inactive

I'd appreciate the recorded outcome for `COc1ccc(-c2cc3c(N)ncnc3o2)cc1` from this test.
inactive

---

system: HCT-15 colon; assay: NCI tumour cell line growth inhibition, 48 h
assay-metric: TGI (µM)
The figure you give is taken to be in µM; do not add the unit.

# TGI (compound: `Cc1cc2nc3c(C#N)c4c(c(Nc5ccc(Cl)cc5)n3c2cc1C)CCC4` ) is 36.7

// TGI value for `CC1=C(C(=O)NCc2ccccc2)C(c2ccccc2O)C(C(=O)NCc2ccccc2)=C(C)N1` : 30.2

Consider `NC(N)=N/N=C/c1ccc(Br)cc1` . Its measured TGI is 19

The compound identified as `C/C=C1/C(=O)O[C@]23C=C[C@@H]4C(C(=O)OC)=CO[C@H](O[C@@H]12)[C@@H]43` registered its TGI at 4.66

---

test system: HCT-116 colon; assay: NCI tumour cell line growth inhibition, 48 h; in the data active = GI50 below about 0.43 µM; inactive = the rest
Can you answer with just one of these options? active, inactive

Outcome? `CCCC(CCC)C(=O)O`
inactive

Recorded call for COC(=O)C1=C(O)C(C(=O)OC)[C@@]2(O)[C@@H](C(=O)OC)C(c3ccccc3Cl)C[C@@H]1[C@@H]2C(=O)OC (some centres undefined) ?
inactive

GET /call?item= `COC(=O)[C@]1(C)CC[C@]2(C)CC[C@]3(C)C(=CC(=O)[C@@H]4[C@@]5(C)CCC(=O)NC(C)(C)[C@@H]5CC[C@]43C)[C@@H]2C1` returns the recorded outcome of this test.
inactive

Give the logged outcome of this assay for the following compound: `Nc1nc(N)c(-c2ccc(Cl)cc2)c(/C=C/c2ccc([N+](=O)[O-])cc2)n1`
inactive

What is the recorded call for this compound in the test? CC1CC2(C)CC(=O)C1C1C(=O)N(CCN3CCOCC3)C(=O)C12 (centres undefined)
inactive

Outcome logged for `O=C1/C(=C/c2cccc(F)c2)CN(C(=O)C(Cl)Cl)C/C1=C\c1cccc(F)c1` in this assay:
active

I'd appreciate the recorded outcome for `CC(=O)N1c2ccc(-c3ccc(C(=O)O)cc3)cc2[C@H](Nc2ccc(Cl)cc2)C[C@@H]1C` from this test.
active

How did this test come out for `O=S1(=O)C=C(c2ccccc2)C(c2ccccc2)=C1` ?
inactive

For this compound, state the assay outcome: `O=C(N/N=C/c1cccc(O)c1)c1ccc(C(F)(F)F)nc1Nc1cccc(C(F)(F)F)c1`
inactive

---

tested on: SNB-19 CNS; assay: NCI tumour cell line growth inhibition, 48 h
Where a SMILES comes first, the peptide text is derived from it. [ ]: non-standard residue; d: D form. The star is where a group is joined. ξ: configuration not given here. dIva = CC[C@@](C)(N)C(=O)O; Aib = CC(C)(N)C(=O)O; ξP = O=C(O)C1CCCN1; βAla = NCCC(=O)O; X5 = OCN*
Assignment: determine reported TGI for the given compounds.

Item: COC(=O)C(=O)C(C(=O)C(=O)Nc1nc(=S)[nH][nH]1)c1nc2ccc([N+](=O)[O-])cc2[nH]c1=O (configuration not stated) | TGI: > 100 µM

What the record says about `COc1ccc(-c2cc(=O)c3cccnc3[nH]2)cc1` : TGI is > 100 µM

Reported TGI for CC(=O)c1cccc(NC(=O)/C(=N\NC(=S)NN)C2C(=O)Nc3ccccc3S2=O)c1 (configuration not stated) was > 100 µM

Form field TGI, entry CC[C@@](C)(NC(=O)[C@H](C)NC(=O)CCNC(=O)C(C)(C)NC(=O)[C@H](C)NC(=O)[C@@H]1CCCN1C(=O)[C@@](C)(CC)NC(=O)[C@H](Cc1ccccc1)NC(=O)C1CCCN1C(=O)C(C)(C)NC(=O)C1CCCN1C(=O)C(C)(C)NC(C)=O)C(=O)NCCC(=O)N[C@@H](CC(C)C)C(=O)NC(C)(C)C(=O)NCCC(=O)N[C@@H](CC(C)C)C(=O)NC(C)(C)C(=O)NC(C)(C)C(=O)N[C@@H](CC(C)C)C(=O)NCCC(=O)NCO (some centres not stated) (Ac-[Aib][ξP][Aib][ξP]F[dIva]PA[Aib][βAla]A[dIva][βAla]L[Aib][βAla]L[Aib][Aib]L[βAla]-X5) : 0.304 µM

Entry under test: CC1OC(n2cnc3c(N)nc(Cl)nc32)C(C)(O)C1O (configuration not stated) . Its TGI was > 25 µM

TGI for C#CC1(O)CC(c2ccccc2)N(C)C(c2ccccc2)C1 (configuration not stated) is > 100 µM

Form field TGI, entry `CN1C(=O)C(C)(C)Oc2c(-c3cn(C)c(=O)c4[nH]ccc34)cc(S(C)(=O)=O)cc21` : > 100 µM
